- tgt: PDGF-R (Homo sapiens)
- Sequence (P09619 33-1106, species assumed): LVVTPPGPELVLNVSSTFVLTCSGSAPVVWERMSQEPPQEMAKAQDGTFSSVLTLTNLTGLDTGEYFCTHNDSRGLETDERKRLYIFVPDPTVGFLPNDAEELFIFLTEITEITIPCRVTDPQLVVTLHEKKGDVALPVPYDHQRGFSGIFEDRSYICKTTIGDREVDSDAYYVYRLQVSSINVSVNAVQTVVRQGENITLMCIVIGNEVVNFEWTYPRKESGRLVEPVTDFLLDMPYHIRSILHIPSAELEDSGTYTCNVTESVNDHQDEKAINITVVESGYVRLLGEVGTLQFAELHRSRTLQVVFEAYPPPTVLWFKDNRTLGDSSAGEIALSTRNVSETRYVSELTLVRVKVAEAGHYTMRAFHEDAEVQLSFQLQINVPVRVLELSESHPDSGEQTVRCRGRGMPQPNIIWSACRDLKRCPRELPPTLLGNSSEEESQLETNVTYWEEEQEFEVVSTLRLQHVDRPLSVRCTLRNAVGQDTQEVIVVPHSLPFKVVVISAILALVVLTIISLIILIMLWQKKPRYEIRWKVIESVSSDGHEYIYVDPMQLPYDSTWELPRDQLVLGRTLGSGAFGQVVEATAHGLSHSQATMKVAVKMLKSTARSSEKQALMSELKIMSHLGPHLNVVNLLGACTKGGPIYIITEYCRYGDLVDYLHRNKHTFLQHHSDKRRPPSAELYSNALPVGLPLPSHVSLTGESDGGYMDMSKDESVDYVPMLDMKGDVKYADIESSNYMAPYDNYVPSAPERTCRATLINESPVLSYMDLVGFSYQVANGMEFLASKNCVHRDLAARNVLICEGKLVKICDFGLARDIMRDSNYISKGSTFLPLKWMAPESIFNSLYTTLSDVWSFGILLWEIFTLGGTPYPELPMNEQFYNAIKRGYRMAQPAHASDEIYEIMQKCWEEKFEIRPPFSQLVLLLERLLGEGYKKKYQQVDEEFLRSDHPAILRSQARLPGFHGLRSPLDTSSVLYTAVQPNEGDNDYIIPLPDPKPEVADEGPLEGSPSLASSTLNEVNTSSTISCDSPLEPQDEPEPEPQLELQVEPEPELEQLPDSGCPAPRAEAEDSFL
- measurement-notes: PDGF-R ELISA
- Format: cell-based
reported-property: PDGF Kinase %Inhibition

Consider the worked cases shown below.
The compound listed as Cc1csc2sc(C=C3C(=O)Nc4c(Br)cc(Br)cc43)c(C)c12 [10724/A11] shows PDGF Kinase %Inhibition equal to 29.3%

The compound listed as O=C1Nc2c(Br)cc(Br)cc2C1=Cc1cc2ccccc2o1 [10724/A07] shows PDGF Kinase %Inhibition equal to 16.1%

The compound listed as COc1ccc(OC)c(C=C2C(=O)Nc3ccc(S(=O)(=O)Nc4ccc(C(F)(F)F)cc4)cc32)c1 [10728/E02] shows PDGF Kinase %Inhibition equal to 15.2%

We next turn to a different compound, shown below.
The compound listed as CCOC(=O)c1[nH]c(C=C2C(=O)Nc3ccc(S(=O)(=O)NC)cc32)c(C(=O)OC)c1C [10726/D03] shows PDGF Kinase %Inhibition equal to 21.4%

----------
- tgt: EGFR (Homo sapiens)
- Construct: Add 7 ug A431 cell lysate per well (EGFR source); endogenous in cells; host or cells: A431
- Sequence (P00533 25-1210): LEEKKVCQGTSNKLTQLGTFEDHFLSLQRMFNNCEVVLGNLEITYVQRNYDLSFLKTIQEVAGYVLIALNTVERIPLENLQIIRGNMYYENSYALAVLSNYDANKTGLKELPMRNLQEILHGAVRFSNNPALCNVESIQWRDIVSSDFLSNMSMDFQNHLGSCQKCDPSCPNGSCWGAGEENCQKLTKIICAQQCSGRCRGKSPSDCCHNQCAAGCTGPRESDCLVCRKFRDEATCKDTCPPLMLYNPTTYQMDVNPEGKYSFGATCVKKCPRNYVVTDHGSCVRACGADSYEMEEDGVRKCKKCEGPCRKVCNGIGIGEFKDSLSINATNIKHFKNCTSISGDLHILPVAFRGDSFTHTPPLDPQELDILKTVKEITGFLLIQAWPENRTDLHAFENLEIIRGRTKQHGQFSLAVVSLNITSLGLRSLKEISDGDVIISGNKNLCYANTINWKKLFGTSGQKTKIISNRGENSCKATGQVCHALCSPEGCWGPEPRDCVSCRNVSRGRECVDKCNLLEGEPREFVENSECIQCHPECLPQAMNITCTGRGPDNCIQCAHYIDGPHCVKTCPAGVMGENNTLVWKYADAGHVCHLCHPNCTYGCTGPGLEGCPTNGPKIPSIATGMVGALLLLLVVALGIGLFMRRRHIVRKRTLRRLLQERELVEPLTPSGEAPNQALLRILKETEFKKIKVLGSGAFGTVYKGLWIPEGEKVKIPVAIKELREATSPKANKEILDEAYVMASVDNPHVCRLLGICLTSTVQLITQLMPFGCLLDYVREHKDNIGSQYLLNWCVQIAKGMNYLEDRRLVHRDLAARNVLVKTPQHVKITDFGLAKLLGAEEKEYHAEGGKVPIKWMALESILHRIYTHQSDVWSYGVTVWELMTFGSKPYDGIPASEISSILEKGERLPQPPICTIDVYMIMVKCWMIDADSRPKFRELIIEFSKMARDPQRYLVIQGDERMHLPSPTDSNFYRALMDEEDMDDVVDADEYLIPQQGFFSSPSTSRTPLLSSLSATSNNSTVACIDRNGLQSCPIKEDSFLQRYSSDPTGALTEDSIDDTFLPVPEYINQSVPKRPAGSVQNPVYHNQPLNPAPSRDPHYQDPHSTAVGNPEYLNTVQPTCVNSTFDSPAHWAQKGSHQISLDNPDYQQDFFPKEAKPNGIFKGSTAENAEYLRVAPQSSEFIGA
- measurement-notes: EGFR ELISA assay (in vitro kinase activity, EGFR captured from A431 cell lysate)
- Type: biochemical
- Parameters: concentration or dose not given beside the values
reported-property: Biochem EGFR %Inhibition (%)
# value in %; strip the unit string

The compound listed as O=C1Nc2ccc(I)cc2C1=Cc1ccc2ccccc2c1O [10718/B04] shows Biochem EGFR %Inhibition equal to 8.5

The compound listed as O=C1Nc2ccc(I)cc2C1=Cc1ccc(C(F)(F)F)cc1 [10722/B11] shows Biochem EGFR %Inhibition equal to -15.5

The compound listed as CC(C)(C)c1cc(C=C2C(=O)Nc3ccc(S(=O)(=O)Nc4ccc(C(F)(F)F)cc4)cc32)cc(Br)c1OCc1ccccc1 [10732/E08] shows Biochem EGFR %Inhibition equal to -21.7

We next turn to a different compound, shown below.
The compound listed as Cc1ccc2occ(C=C3C(=O)Nc4c(Br)cc(Br)cc43)c(=O)c2c1 [10731/A06] shows Biochem EGFR %Inhibition equal to 30.1

----------
PDGF Kinase %Inhibition values, listed per item
- tgt: UniProt:P09619
- measurement-notes: PDGF-R ELISA
- Format: cell-based
# value in %; strip the unit string

The compound listed as O=C1Nc2ccc(CCCl)cc2C1=Cc1ccc(O)c([N+](=O)[O-])c1 shows PDGF Kinase %Inhibition equal to -2.7

Others:
The compound listed as Cc1c(Br)ccc2c1C(=C1C(=O)N(C)c3ccccc31)C(=O)N2 shows PDGF Kinase %Inhibition equal to 6.5

The compound listed as Cc1c(Br)ccc2c1C(=Cc1cccc(F)c1O)C(=O)N2 shows PDGF Kinase %Inhibition equal to 5.5

The compound listed as CCOC(=O)c1[nH]c(C=C2C(=O)Nc3ccc(CCCl)cc32)c(C(=O)OC)c1C shows PDGF Kinase %Inhibition equal to 4.3

The compound listed as O=C1Nc2ccc(CCCl)cc2C1=Cc1cc2ccccc2o1 shows PDGF Kinase %Inhibition equal to -41.6

----------
Met Kinase % Inhibition values, listed per item
- Tested on: MET
- measurement-notes: MET biochemical kinase assay
- Set-up: species or system human; concentration or dose not given beside the values
- Text: A met biochemical kinase assay may be performed for met generally as described above for other kinases by substituting that or the other kinases. […] Incorporation of phosphate into the captured receptors is detected with an anti-phosphotyrosine antibody conjugate with horse radish peroxidase using TMB as a substrate for colorimetric detection.
# value in %; strip the unit string

Consider the worked cases shown below.
The compound listed as O=C1Nc2c(Br)cc(Br)cc2C1=Cc1c(F)cccc1C(F)(F)F [10728/A09] shows Met Kinase % Inhibition equal to 53.1

The compound listed as Cc1c(Br)ccc2c1C(=Cc1ccc(O)cc1)C(=O)N2 [10719/C07] shows Met Kinase % Inhibition equal to 7.7

The compound listed as O=C1Nc2c(Br)cc(Br)cc2C1=Cc1cccc(F)c1O [10734/A08] shows Met Kinase % Inhibition equal to 71.5

The compound listed as COc1cc(C)cc(O)c1C=C1C(=O)Nc2ccc(S(=O)(=O)N3CCOCC3)cc21 [10725/F06] shows Met Kinase % Inhibition equal to 41.8

The compound listed as CNS(=O)(=O)c1ccc2c(c1)C(=Cc1ccc(O)c(C)c1O)C(=O)N2 [10718/D09] shows Met Kinase % Inhibition equal to 9.9

We next turn to a different compound, shown below.
The compound listed as O=C1Nc2ccc(I)cc2C1=Cc1coc2ccc(Cl)cc2c1=O [10730/B06] shows Met Kinase % Inhibition equal to 71.3

Provenance of the data: patent EP1247803A2
